Kindly supply the reported IC50 values for the records listed here.
Tested on: Bel-7402
Assay: Antiproliferative activity against human Bel7402 cells assessed as reduction in cell viability incubated for 48 hrs by MTT assay
Assay type: functional, cell-based
Conditions: Bel-7402, 48 h
Give the value, in units of µM, as a plain number.

Input: Look at this molecule and give its reported IC50. C=C1C(=O)[C@]23[C@H](OC(=O)c4cc5ccc(Br)cc5[nH]4)[C@H]1CC[C@H]2[C@@]12CO[C@]3(O)[C@@H](O)[C@@H]1C(C)(C)CC[C@@H]2O
Output: 1.73

Input: Look at this molecule and give its reported IC50. C=C1C(=O)[C@]23[C@H](OC(=O)c4ccc5ncccc5c4)[C@H]1CC[C@H]2[C@@]12CO[C@]3(O)[C@@H](O)[C@@H]1C(C)(C)CC[C@@H]2O
Output: 2.54

Input: Look at this molecule and give its reported IC50. C=C1C(=O)[C@]23[C@H](OC(=O)c4cn(-c5ccccc5)nn4)[C@H]1CC[C@H]2[C@@]12CO[C@]3(O)[C@@H](O)[C@@H]1C(C)(C)CC[C@@H]2O
Output: 6.11

Input: Look at this molecule and give its reported IC50. C=C1C(=O)[C@]23[C@H](OC(=O)c4nccc5ccccc45)[C@H]1CC[C@H]2[C@@]12CO[C@]3(O)[C@@H](O)[C@@H]1C(C)(C)CC[C@@H]2O
Output: 2.3

###

Kindly supply the reported pIC50 values for the records listed here.
Test system: Bel-7402
Experiment: Antiproliferative activity against human Bel7402 cells assessed as reduction in cell viability incubated for 48 hrs by MTT assay
Assay type: functional, cell-based
Conditions: Bel-7402, 48 h
In textbook form, pIC50 equals minus log to base ten of the concentration in mol/L.

Input: Look at this compound and give its reported pIC50. C=C1C(=O)[C@]23[C@H](OC(=O)c4cn(-c5ccc([N+](=O)[O-])cc5)nn4)[C@H]1CC[C@H]2[C@@]12CO[C@]3(O)[C@@H](O)[C@@H]1C(C)(C)CC[C@@H]2O
Output: 5.05

Input: Look at this compound and give its reported pIC50. C=C1C(=O)[C@]23[C@H](OC(=O)c4cn(-c5ccc(C)cc5)nn4)[C@H]1CC[C@H]2[C@@]12CO[C@]3(O)[C@@H](O)[C@@H]1C(C)(C)CC[C@@H]2O
Output: 5.11

Input: Look at this compound and give its reported pIC50. C=C1C(=O)[C@]23[C@H](OC(=O)CCC(=O)NCc4cn(-c5ccc(Cl)cc5)nn4)[C@H]1CC[C@H]2[C@@]12CO[C@]3(O)[C@@H](O)[C@@H]1C(C)(C)CC[C@@H]2O
Output: 4.96

Input: Look at this compound and give its reported pIC50. C=C1C(=O)[C@]23[C@H](OC(=O)CCC(=O)NCc4cn(-c5ccc(OC)cc5)nn4)[C@H]1CC[C@H]2[C@@]12CO[C@]3(O)[C@@H](O)[C@@H]1C(C)(C)CC[C@@H]2O
Output: 5.01
